# System: PAK6
# EXPERIMENTAL PARAMETERS: concentration: 1 μM, replicates: in singlicate; n = 1;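 also: KINOMEscan kinase panel screen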
VALUE KIND: %Inh (%)
Only the number, expressed in %, is required.

The following compounds have reported results that may help.
[[record]]
compound = "FC(F)(F)c1ccc(-c2nn3ncccc3c2-c2ccnc(Nc3cccc(C(F)(F)F)c3)n2)cc1"
measurement_units = "%"
measured_value = 20

[[record]]
compound = "CSc1ccc(NC2=C(c3ccccc3Cl)C(=O)NC2=O)cc1"
measurement_units = "%"
measured_value = 8


Value lookup for %Inh; key = Cl.c1ccc(Cn2ncc3cc(Nc4ncnc5ccccc45)ccc32)cc1
15

Value lookup for %Inh; key = Cc1cccc(-c2nc(Nc3ccc4[nH]nnc4c3)c3ccccc3n2)n1
0

Value lookup for %Inh; key = CN1CCC(n2cnc(-c3ccc(F)cc3)c2-c2ccnc(NC3CCNCC3)n2)CC1
11

Value lookup for %Inh; key = O=C(Nc1ccccc1)Nc1ccc(Oc2ccc3nccn3n2)cc1
0

Value lookup for %Inh; key = FC(F)(F)c1ccc(-c2cc(-c3c[nH]nc3-c3ccccn3)ccn2)cc1
0

---

# Test system: CDK11
# Construct: gene CDK19
# EXPERIMENTAL PARAMETERS: concentration: 1 μM, replicates: in singlicate; n = 1
Criterion: %Inh strictly under 5%. Met: YES. Not met: NO.

[[record]]
molecule = "COC(=O)c1cccc(NC(=O)NCCNc2ccnc(Nc3ccc(F)cc3)n2)c1"
discrete_label = "NO"

[[record]]
molecule = "Cn1ccc2ncnc(Oc3ccc(NC(=O)Nc4cccnc4)c(Cl)c3)c21"
discrete_label = "YES"

[[record]]
molecule = "CS(=O)(=O)CCNCc1ccc(-c2ccc3ncnc(Nc4ccc(OCc5ccccc5)c(Cl)c4)c3c2)o1.Cl"
discrete_label = "NO"

[[record]]
molecule = "Cl.c1ccc(Cn2ccc3cc(Nc4ncnc5ccccc45)ccc32)cc1"
discrete_label = "NO"

[[record]]
molecule = "CCC(CC)(CC)n1cnc2c(N)ncnc21"
discrete_label = "YES"


Quick check: does COc1ccc(NC(=O)Nc2ccc(C)c(-c3ccc(C(=O)Nc4ccncc4)cc3)c2)cc1 have %Inh under 5%?
YES

Quick check: does CCCc1ccc(S(=O)(=O)NC2CCN(c3ccnc(Nc4ccc(OC)cc4)n3)C2)cc1 (stereo not drawn) have %Inh under 5%?
NO

Quick check: does COc1ccc(Nc2nccc(N3CCC(NC(=O)c4cccc(NC(C)=O)c4)C3)n2)cc1 (stereo not drawn) have %Inh under 5%?
NO

---

The entries below are paired with their reported %Inh.
# Test system: MEK6
# Construct: gene MAP2K6
# EXPERIMENTAL PARAMETERS: concentration: 1 μM, replicates: in singlicate; n = 1
Only the number, expressed in %, is required.

The following molecules have reported results that may help.
[[record]]
entry_smiles = "CC(C)(C)c1ccc(-n2cnc3c(N)ncnc32)cc1"
measured_value = 0

[[record]]
entry_smiles = "C[C@@H]1CCN(C(=O)CO)C[C@@H]1N(C)c1ncnc2[nH]ccc12"
measured_value = 3

[[record]]
entry_smiles = "Cc1ccc(C)c(NC(=O)NCCNc2ccnc(Nc3ccc(F)cc3)n2)c1"
measured_value = 0

[[record]]
entry_smiles = "FC(F)(F)c1cc(Nc2nccc(-c3c(-c4ccc(Cl)cc4)nn4ncccc34)n2)ccc1Cl"
measured_value = 0

[[record]]
entry_smiles = "COc1ccc(-c2nc3n(c2-c2ccncc2)CCC3)cc1"
measured_value = 0

[[record]]
entry_smiles = "Cc1ccc(NC(=O)c2cccc(C#N)c2)cc1-c1ccc(C(=O)Nc2ccncc2)cc1"
measured_value = 31


Value lookup for %Inh; key = Cl.Cn1ccc(-c2cccc(Nc3ccnc4cc(-c5nccs5)ccc34)c2)n1
0

Value lookup for %Inh; key = Nc1nc(-c2ccc3c(N)n[nH]c3c2)cc(N2CCC[C@@H](C(=O)Nc3ccccc3)C2)n1.O=C(O)C(F)(F)F.O=C(O)C(F)(F)F
8

Value lookup for %Inh; key = CCc1nc(-c2cccc(C)c2)c(-c2ccnc(NC(=O)c3ccccc3)c2)s1
0

Value lookup for %Inh; key = FC(F)(F)c1ccc(-c2cc(-c3c[nH]nc3-c3ccccn3)ccn2)cc1
0

Value lookup for %Inh; key = Cn1cc(-c2ccc3c(c2)CCN3C(=O)Cc2cccc(C(F)(F)F)c2)c2c(N)ncnc21
0

Value lookup for %Inh; key = CS(=O)(=O)CCNCc1ccc(-c2ccc3ncnc(Nc4ccc(OCc5ccccc5)c(Cl)c4)c3c2)o1.Cl
0

Value lookup for %Inh; key = CCC(CC)(CC)n1cnc2c(N)ncnc21
14

Value lookup for %Inh; key = Cn1ccc2ncnc(Oc3ccc(NC(=O)Nc4cccnc4)c(Cl)c3)c21
0

---

The entries below are paired with their reported %Inh.
# Tested on: DAPK3
# EXPERIMENTAL PARAMETERS: concentration: 1 μM, replicates: in singlicate; n = 1
Units required after the number.

The following compounds have reported results that may help.
[[record]]
entry_smiles = "Fc1cccc(COc2ccc(Nc3ncnc4cc[nH]c34)cc2Cl)c1"
measured_value = "22%"

[[record]]
entry_smiles = "Fc1ccc(Nc2nccc(-c3c(-c4ccc(Cl)cc4)nn4ncccc34)n2)cc1F"
measured_value = "8%"

[[record]]
entry_smiles = "COC(=O)c1cccc(NC(=O)NCCNc2ccnc(Nc3ccc(F)cc3)n2)c1"
measured_value = "13%"

[[record]]
entry_smiles = "Cc1ccc(C)c(NC(=O)NCCNc2ccnc(Nc3ccc(F)cc3)n2)c1"
measured_value = "11%"

[[record]]
entry_smiles = "Cl.O=S(=O)(c1cccc(F)c1)c1ccc(Nc2ncnc3cc(Br)sc23)cc1Cl"
measured_value = "47%"


For the next question, use this compound.
Value lookup for %Inh; key = Fc1cccc(COc2ccc(Nc3ncnc4nn5ccccc5c34)cc2Cl)c1
7%

---

# System: GCN2(Kin.Dom.2,S808G)
# Construct: gene EIF2AK4
# EXPERIMENTAL PARAMETERS: concentration: 1 μM, replicates: in singlicate; n = 1
Criterion: %Inh strictly under 10%. Met: t. Not met: f.

Answered examples (3):
[[record]]
entry_smiles = "CN1CCC(n2cnc(-c3ccc(F)cc3)c2-c2ccnc(NC3CCNCC3)n2)CC1"
discrete_label = "t"

[[record]]
entry_smiles = "O=C(CCO)NCCn1ccc2ncnc(Nc3ccc(Oc4cccc(C(F)(F)F)c4)c(Cl)c3)c21"
discrete_label = "t"

[[record]]
entry_smiles = "COc1ccc(NC(=O)c2ccc(-c3cc(-c4nnc(C)o4)ccc3C)cc2)cc1"
discrete_label = "f"


Quick check: does CS(=O)(=O)CCNCc1ccc(-c2ccc3ncnc(Nc4ccc(OCc5ccccc5)c(Cl)c4)c3c2)o1.Cl have %Inh under 10%?
f

Quick check: does FC(F)(F)c1ccc(-c2cc(-c3c[nH]nc3-c3ccccn3)ccn2)cc1 have %Inh under 10%?
t

Quick check: does CN1c2ccc(-c3ccc(C(=O)NCCO)cc3)cc2-c2[nH]ncc2S1(=O)=O have %Inh under 10%?
f

Quick check: does CSc1nn2c(=O)cc(N3CCOCC3)nc2n1Cc1cccc(Cl)c1Cl have %Inh under 10%?
t

Quick check: does COc1ccc(-c2oc3ncnc(N)c3c2-c2ccc(OC)cc2)cc1 have %Inh under 10%?
f

Quick check: does Cc1cccc(-c2nc(Nc3ccc4[nH]nnc4c3)c3ccccc3n2)n1 have %Inh under 10%?
t

---

# Tested on: ANKK1
# EXPERIMENTAL PARAMETERS: concentration: 1 μM, replicates: in singlicate; n = 1
The entries below are paired with their reported %Inh.
Only the number, expressed in %, is required.

The following compounds have reported results that may help.
[[record]]
entry_smiles = "Cl.O=S(=O)(c1cccc(F)c1)c1ccc(Nc2ncnc3cc(Br)sc23)cc1Cl"
target_system = "ANKK1"
value_kind = "%Inh"
measured_value = 3

[[record]]
entry_smiles = "CS(=O)(=O)CCNCc1ccc(-c2ccc3ncnc(Nc4ccc(OCc5ccccc5)c(Cl)c4)c3c2)o1.Cl"
target_system = "ANKK1"
value_kind = "%Inh"
measured_value = 0

[[record]]
entry_smiles = "FC(F)(F)c1ccc(-c2nn3ncccc3c2-c2ccnc(Nc3cccc(C(F)(F)F)c3)n2)cc1"
target_system = "ANKK1"
value_kind = "%Inh"
measured_value = 0


Return %Inh measured with ANKK1 given this compound: Cc1cccc(-c2nc(Nc3ccc4[nH]nnc4c3)c3ccccc3n2)n1
0

Return %Inh measured with ANKK1 given this compound: CNc1nccc(-c2c(-c3ccc(F)cc3)ncn2C2CCN(C)CC2)n1
0

Return %Inh measured with ANKK1 given this compound: Cl.c1ccc(Cn2ncc3cc(Nc4ncnc5ccccc45)ccc32)cc1
0

Return %Inh measured with ANKK1 given this compound: COC(=O)c1cccc(NC(=O)NCCNc2ccnc(Nc3ccc(F)cc3)n2)c1
1

Return %Inh measured with ANKK1 given this compound: Cn1cc(-c2ccc3c(c2)CCN3C(=O)Cc2cccc(C(F)(F)F)c2)c2c(N)ncnc21
16

---

# Tested on: PIM1
# EXPERIMENTAL PARAMETERS: concentration: 1 μM, replicates: in singlicate; n = 1
VALUE KIND: %Inh
Units required after the number.

[[record]]
molecule = "CNc1nccc(-c2c(-c3ccc(F)cc3)ncn2CCCN2CCOCC2)n1"
target_system = "PIM1"
measured_value = "0%"

[[record]]
molecule = "Cc1ccc(NC(=O)c2cccc(C#N)c2)cc1-c1ccc(C(=O)Nc2ccncc2)cc1"
target_system = "PIM1"
measured_value = "9%"

[[record]]
molecule = "O=C(Nc1ccccc1)Nc1ccc(Oc2ccc3nccn3n2)cc1"
target_system = "PIM1"
measured_value = "0%"

[[record]]
molecule = "COc1ccc(NC(=O)Nc2ccc(C)c(-c3ccc(C(=O)Nc4ccncc4)cc3)c2)cc1"
target_system = "PIM1"
measured_value = "0%"

[[record]]
molecule = "O=C(Nc1n[nH]c2nc(-c3ccco3)c(Br)cc12)c1ccc(CN2CCCC2)cc1.O=C(O)[C@H](O)[C@@H](O)C(=O)O"
target_system = "PIM1"
measured_value = "0%"


Value lookup for %Inh; key = CCc1nc(-c2cccc(N(C)S(=O)(=O)c3ccccc3)c2)c(-c2ccnc(Nc3ccc(N4CCN(C(C)=O)CC4)nc3)n2)s1
17%

Value lookup for %Inh; key = FC(F)(F)c1cc(Nc2nccc(-c3c(-c4ccc(Cl)cc4)nn4ncccc34)n2)ccc1Cl
0%

Value lookup for %Inh; key = Nc1nc(-c2ccc3c(N)n[nH]c3c2)cc(N2CCC[C@@H](C(=O)Nc3ccccc3)C2)n1.O=C(O)C(F)(F)F.O=C(O)C(F)(F)F
20%

From: paper PMC5540273
